- ASSAY METHOD TEXT: PAMPA-BBB test
- Assay type: in vitro ADME
- RUN PARAMETERS: PAMPA-BBB, PBS pH 7.4/DMSO 95/5, 2.5 h, room temperature; read-out: Pe exp
Catalogue of compounds with associated Papp at 2.5 h
Give the number; nm/s is assumed, so skip it.

CCn1sc(=O)n(Cc2cn(Cc3ccc(CC(=O)Nc4nc5ccccc5s4)cc3)nn2)c1=O    50.8

Exam item: Query Papp at 2.5 h for O=C(Cc1ccc(OCc2cn(CCc3ccc(C(=O)Nc4nc5ccccc5s4)cc3)nn2)cc1)Nc1nc2ccccc2s1
Marked response: 35.8

Exam item: Query Papp at 2.5 h for CN1C(C(=O)Nc2ccccn2)=C(O)c2ccccc2S1(=O)=O [Piroxicam, piroxicam, reference compound]
Marked response: 29.2

Exam item: Query Papp at 2.5 h for CNCCCN1c2ccccc2CCc2ccccc21 [Desipramine, desipramine, reference compound]
Marked response: 74.4

###

- TARGET OR SYSTEM: CK1δ (Homo sapiens)
- Sequence (P48730 whole entry): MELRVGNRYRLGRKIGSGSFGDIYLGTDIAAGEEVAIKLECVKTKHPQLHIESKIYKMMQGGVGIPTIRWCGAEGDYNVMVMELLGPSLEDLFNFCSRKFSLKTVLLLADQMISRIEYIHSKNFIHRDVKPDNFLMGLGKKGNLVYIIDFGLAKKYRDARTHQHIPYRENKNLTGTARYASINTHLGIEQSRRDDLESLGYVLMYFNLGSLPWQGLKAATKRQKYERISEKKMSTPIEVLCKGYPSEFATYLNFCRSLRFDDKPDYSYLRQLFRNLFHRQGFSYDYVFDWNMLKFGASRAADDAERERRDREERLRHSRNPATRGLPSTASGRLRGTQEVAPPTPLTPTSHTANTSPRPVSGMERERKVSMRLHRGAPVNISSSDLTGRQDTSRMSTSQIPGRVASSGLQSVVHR
- ASSAY METHOD TEXT: CK1δ inhibition enzymatic assay (Kinase-Glo)
- Type: biochemical
ENDPOINT NAME: IC50
Include the unit right after the number.

O=C(Cc1ccccc1)Nc1nc2ccccc2s1 [MBC-858, reference compound]    0.33 µM

Turning now to a further record.
Exam item: Query IC50 for O=C(Cc1ccc(Cn2cc(COc3ccc(/N=C4\C(=O)Nc5ccccc54)cc3)nn2)cc1)Nc1nc2ccccc2s1
Marked response: 6.47 µM

###

- ASSAY METHOD TEXT: PAMPA-BBB test
- Format: in vitro ADME
- RUN PARAMETERS: PAMPA-BBB, PBS pH 7.4/DMSO 95/5, 2.5 h, room temperature; read-out: Pe exp
ENDPOINT NAME: Papp at 2.5 h

Some solved entries appear below for comparison.
CN(C)CCCN1c2ccccc2Sc2ccccc21 [Promazine, promazine, reference compound]    5.18 ×10⁻⁶ cm/s
O=C(Cc1ccc(Cn2cc(COc3ccc(/N=C4\C(=O)Nc5ccccc54)cc3)nn2)cc1)Nc1nc2ccccc2s1    3.07 ×10⁻⁶ cm/s
Cn1c(=O)c2c(ncn2C)n(C)c1=O [Caffeine, caffeine, reference compound]    1.45 ×10⁻⁶ cm/s

Turning now to a further record.
Exam item: Query Papp at 2.5 h for O=C(Cc1ccc(OCc2cn(Cc3ccc(C(=O)Nc4nc5ccccc5s4)cc3)nn2)cc1)Nc1nc2ccc(C(F)(F)F)cc2s1
Marked response: 0.65 ×10⁻⁶ cm/s

###

- TARGET OR SYSTEM: Human recombinant GSK3β (Homo sapiens, UniProt P49841)
- Construct: purchased Millipore (Millipore Ibérica SAU)
- Sequence (P49841 whole entry): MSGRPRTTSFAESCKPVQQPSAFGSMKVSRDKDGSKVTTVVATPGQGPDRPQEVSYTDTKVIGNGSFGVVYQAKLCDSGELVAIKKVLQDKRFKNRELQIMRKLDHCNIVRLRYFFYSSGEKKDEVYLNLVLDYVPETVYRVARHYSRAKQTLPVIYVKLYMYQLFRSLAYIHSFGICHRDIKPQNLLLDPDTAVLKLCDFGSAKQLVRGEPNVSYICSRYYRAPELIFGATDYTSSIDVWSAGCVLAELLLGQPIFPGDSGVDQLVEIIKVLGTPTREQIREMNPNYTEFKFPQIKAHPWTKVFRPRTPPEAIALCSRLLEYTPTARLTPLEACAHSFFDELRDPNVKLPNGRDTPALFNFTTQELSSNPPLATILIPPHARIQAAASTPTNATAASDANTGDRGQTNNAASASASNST
- ASSAY METHOD TEXT: GSK3β inhibition enzymatic assay (Kinase-Glo)
- Assay type: biochemical
Catalogue of compounds with associated IC50
Give the number; nM is assumed, so skip it.

Some solved entries appear below for comparison.
CCn1sc(=O)n(Cc2ccccc2)c1=O [MBC-2138, reference compound]    530
CCn1sc(=O)n(Cc2cn(Cc3ccc(C(=O)Nc4nc5ccccc5s4)cc3)nn2)c1=O    2360

Exam item: Query IC50 for CCn1sc(=O)n(Cc2cn(Cc3ccc(CC(=O)Nc4nc5ccccc5s4)cc3)nn2)c1=O
Marked response: 3850

###

As a worked illustration, we turn to IC50 data collected for BACE1 (Homo sapiens).

Some solved entries appear below for comparison.
O=C(Cc1ccc(OCc2cn(Cc3ccc(C(=O)Nc4nc5ccccc5s4)cc3)nn2)cc1)Nc1nc2ccc(C(F)(F)F)cc2s1 [compound 28]    7.21 µM
CCOC(=O)c1sc(NC(=O)Cc2ccc(OCc3cn(Cc4ccc(CC(=O)Nc5nc6ccccc6s5)cc4)nn3)cc2)nc1C [compound 31]    6.76 µM
CCn1sc(=O)n(Cc2ccccc2)c1=O [MBC-2138, reference compound]    > 20 µM
O=C(Cc1ccccc1)Nc1nc2ccccc2s1 [MBC-858, reference compound]    > 20 µM

Exam item: Query IC50 for O=C(Cc1ccc(Cn2cc(COc3ccc(C(=O)Nc4nc5ccccc5s4)cc3)nn2)cc1)Nc1nc2ccccc2s1 [compound 17]
Marked response: 2.51 µM

// data source = paper PMC8457121
